Cited source for all entries: patent US20230348852A1

# Test system: B2M
# assay protocol: Targeted PCR and NGS (amplicon sequencing) of on-target and off-target sites in genome-edited LSCs
# Format: cell-based, human
# applied conditions: amplicon sequencing of potential off-target loci
property: validated indels for off-target activity in LSCs

molecule="1-CR004366: gRNA targeting human B2M; targeting domain SEQ ID NO: 108; sgRNA SEQ ID NO: 120; from Dharmacon (nucleic acid, listed as RNA, chemistry not given here, gRNA targeting human B2M; from Dharmacon) guide: GAGUAGCGCGAGCACAGCUAGUUUUAGAGCUAGAAAUAGCAAGUUAAAAUAAGGCUAGUCCGUUAUCAACUUGAAAAAGUGGCACCGAGUCGGUGCUUUU" measured_result=zero
